Source of measurements: ChEMBL document CHEMBL3390831

The following molecules have recorded pKi on Cannabinoid receptor 1 (Homo sapiens, UniProt P21554).
Sequence (P21554 whole entry): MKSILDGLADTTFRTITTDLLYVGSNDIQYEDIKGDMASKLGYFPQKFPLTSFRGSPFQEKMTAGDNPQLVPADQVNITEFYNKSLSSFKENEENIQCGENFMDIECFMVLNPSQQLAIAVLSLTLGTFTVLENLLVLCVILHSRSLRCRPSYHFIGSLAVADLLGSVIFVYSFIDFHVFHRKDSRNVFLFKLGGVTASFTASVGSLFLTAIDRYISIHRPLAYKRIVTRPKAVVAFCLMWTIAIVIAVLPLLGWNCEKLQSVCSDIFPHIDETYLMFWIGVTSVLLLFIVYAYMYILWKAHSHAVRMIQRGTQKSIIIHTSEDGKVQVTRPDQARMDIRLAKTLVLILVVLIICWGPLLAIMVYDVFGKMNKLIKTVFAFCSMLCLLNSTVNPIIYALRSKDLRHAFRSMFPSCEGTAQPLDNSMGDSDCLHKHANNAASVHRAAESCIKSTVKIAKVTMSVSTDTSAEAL
// field semantics: pKi = negative decimal log of concentration (mol/L)

- CHEMICAL_STRUCTURE: "COc1cccc2c(C(=O)N3CCN(C)[C@@H](C)C3)cn(CC3CCCCC3)c12.Cl"
  MEASURED_RESULT: 8.90

Query block: Identify measured pKi corresponding to COc1cccc2c(C(=O)N3C[C@@H](C)N(C)[C@@H](C)C3)cn(CC3CCCCC3)c12.Cl
Result block: 8.90

====

Reported Cmax values for the following compounds.
- ASSAY_EXPLANATION: Cmax in ICR mouse brain at 3 umol/kg, iv
- Type: ADME, tissue-based
- Set-up: dose 3 umol/kg, route intravenous
Please respond with the number in ng/g and leave the unit unwritten.

- CHEMICAL_STRUCTURE: "COc1cccc2c(C(=O)N3CCN(C)[C@@H](C)C3)cn(CC3CCCCC3)c12.Cl"
  MEASUREMENT_UNIT: "ng/g"
  Cmax: 2460

Now consider the entry below.
Query block: Identify measured Cmax corresponding to COc1cccc2c(C(=O)N3C[C@@H](C)N(C)[C@@H](C)C3)cn(CC3CCCCC3)c12.Cl
Result block: 1620

====

- ASSAY_EXPLANATION: Aqueous solubility of the compound in phosphate buffered saline at pH 6.9 by shake-flask method
- Assay type: physicochemical
ENDPOINT_LABEL: solubility thermodynamic (µg/mL)
Please respond with the number in µg/mL and leave the unit unwritten.

Query block: Identify measured solubility thermodynamic corresponding to COc1cccc2c(C(=O)N3CCN(C)[C@@H](C)C3)cn(CC3CCCCC3)c12.Cl
Result block: 129

====

Reported EC50 values for the following molecules.
- SYSTEM: Cannabinoid receptor 1 (Homo sapiens, UniProt P21554)
Please respond with the number in nM and leave the unit unwritten.

These solved cases illustrate the format of a correct answer.
- CHEMICAL_STRUCTURE: "CCN1CCN(C(=O)c2cn(CC3CCCCC3)c3cc(Cl)ccc23)CC1"
  EC50, nM: 1580
- CHEMICAL_STRUCTURE: "Cc1ccc2c(C(=O)N3CCN(C)CC3)cn(CC3CCCCC3)c2c1"
  EC50, nM: 316
- CHEMICAL_STRUCTURE: "O=C(N/N=C1\\C(=O)N(Cc2ccccc2)c2ccccc21)c1ccccc1"
  EC50, nM: 631
- CHEMICAL_STRUCTURE: "CCN1CCN(C(=O)c2cn(CC3CCCCC3)c3ccc(F)cc23)CC1"
  EC50, nM: 501
- CHEMICAL_STRUCTURE: "CCN1CCN(C(=O)c2cn(CC3CCCCC3)c3cc(OC)ccc23)CC1"
  EC50, nM: 158
- CHEMICAL_STRUCTURE: "CCN1CCN(C(=O)c2cn(CC3CCCCC3)c3ccccc23)CC1"
  EC50, nM: 316
- CHEMICAL_STRUCTURE: "CCN1CCN(C(=O)c2cn(CC3CCCCC3)c3c(OC)cccc23)C[C@@H]1C.Cl"
  EC50, nM: 39.8
- CHEMICAL_STRUCTURE: "CCN1CCN(C(=O)c2cn(CC3CCCCC3)c3cccc(F)c23)CC1"
  EC50, nM: 251

Query block: Write down measured EC50 (Cannabinoid receptor 1 (Homo sapiens, UniProt P21554)) for this molecule. COc1cccc2c(C(=O)N3CCN(C)[C@H](C)C3)cn(CC3CCCCC3)c12.Cl
Result block: 126

Query block: Write down measured EC50 (Cannabinoid receptor 1 (Homo sapiens, UniProt P21554)) for this molecule. CCN1CCN(C(=O)c2cn(CC3CCCCC3)c3c(OC)cccc23)C[C@H]1C.Cl
Result block: 631

Query block: Write down measured EC50 (Cannabinoid receptor 1 (Homo sapiens, UniProt P21554)) for this molecule. CCN1CCN(C(=O)c2cn(CC3CCCCC3)c3cc(F)ccc23)CC1
Result block: 251

Query block: Write down measured EC50 (Cannabinoid receptor 1 (Homo sapiens, UniProt P21554)) for this molecule. Cc1ccc2c(c1)c(C(=O)N1CCN(C)CC1)cn2CC1CCCCC1
Result block: 2000

Query block: Write down measured EC50 (Cannabinoid receptor 1 (Homo sapiens, UniProt P21554)) for this molecule. CCN1CCN(C(=O)c2cn(CC3CCCCCC3)c3c(OC)cccc23)CC1
Result block: 794

Query block: Write down measured EC50 (Cannabinoid receptor 1 (Homo sapiens, UniProt P21554)) for this molecule. CCN1CCN(C(=O)c2cn(CC3CCCCC3)c3c(Cl)cccc23)CC1
Result block: 501

Query block: Write down measured EC50 (Cannabinoid receptor 1 (Homo sapiens, UniProt P21554)) for this molecule. CCN1CCN(C(=O)c2cn(CC3CCCCC3)c3c(Br)cccc23)CC1
Result block: 794

Query block: Write down measured EC50 (Cannabinoid receptor 1 (Homo sapiens, UniProt P21554)) for this molecule. O=C(Cc1ccccc1)N/N=C1\C(=O)N(CC2CCCCC2)c2cc(OCCN3CCOCC3)ccc21
Result block: 63.1

Query block: Write down measured EC50 (Cannabinoid receptor 1 (Homo sapiens, UniProt P21554)) for this molecule. CN1CCN(C(=O)c2cn(CC3CCCCC3)c3ccccc23)CC1
Result block: 501
